# Assayed Target: thrombin (Homo sapiens)
# Construct: consists of two polypeptide chains of 36 (light chain) and 259 amino acid
# Assay: Thrombin inhibition screen of crude macrocycle reactions (residual thrombin activity, fluorogenic substrate Z-Gly-Gly-Arg-AMC)
# Format: biochemical
# Test Conditions: 10 µM macrocycle concentration; macrocycles containing acid 14; crude reaction; replicate reaction and screen
Numbered stars: 1 amine (or outer) side, 2 acyl side, 3 side chain; on linkers, the order of the positions; unused ones are H or OH. Bridge positions count the residues as written; N and C are the ends. Square brackets hold non-standard residues; d marks the D form. Peptide text beside a SMILES is read from it. * marks the point of attachment. 2Thenoyl(5-Cl) = O=C(c1ccc(Cl)s1)*; Cysteamide = C(CS[*:3])N[*:1]; dDap = NC[C@@H](N)C(=O)O; Api = NC1(C(=O)O)CCNCC1; Dap = NC[C@H](N)C(=O)O; Mpa = O=C(O)CCS
Observable: % thrombin activity, Repeat screen (%)
Field: numeric (%). Do not append units.

[ask] Fill in the blank: the reported % thrombin activity, Repeat screen of O=C1CCSSCCNC(=O)c2cccc(c2)CNC(=O)[C@H](Cc2ccccc2)NC(=O)[C@H](CCCNC(=O)c2ccc(Cl)s2)N1 [X D2 F B5] is ____.
[reply] 93.4

[ask] Note, next up: O=C1CCSSCCNC(=O)C2(CC2)CNC(=O)[C@H](Cc2c[nH]cn2)NC(=O)[C@H](CCCCNC(=O)c2ccc(Cl)s2)N1 [X D1 H B6]
[reply] 107.1

[ask] Note, next up: NC(=O)CCC1NC(=O)C(CCCCNC(=O)c2ccc(Cl)s2)NC(=O)CCSSCCNC(=O)C2CCCN2C1=O (stereo not shown) [X D1 Q B1] ([Mpa]K(2Thenoyl(5-Cl))QP-Cysteamide; disulfide 1-C; configuration not given here)
[reply] 105.2

[ask] Note, next up: O=C1CCSSCCNC(=O)[C@H](CNC(=O)c2ccc(Cl)s2)NC(=O)C2(CC2)CNC(=O)[C@H](Cc2c[nH]c3ccccc23)N1
[reply] 56.1

[ask] Note, next up: CC(C)CC1NC(=O)C(CCCNC(=O)c2ccc(Cl)s2)NC(=O)C2(CC2)CNC(=O)CCSSCCNC1=O (stereo not shown) [X B6 D2 L]
[reply] 102.8

[ask] Note, next up: O=C1CCSSCCNC(=O)C2(CC2)CNC(=O)C2(CCN(C(=O)c3ccc(Cl)s3)CC2)NC(=O)[C@@H](Cc2c[nH]c3ccccc23)N1
[reply] 97.3

[ask] Note, next up: CC[C@H](C)[C@@H]1NC(=O)CCNC(=O)C2(CCN(C(=O)c3ccc(Cl)s3)CC2)NC(=O)CCSSCCNC1=O
[reply] 109.7

[ask] Note, next up: O=C1CCSSCCNC(=O)C2CC(NC(=O)c3ccc(Cl)s3)CN2C(=O)CCNC(=O)C(CO)N1 (stereo not shown)
[reply] 90.6

[ask] Note, next up: CC(C)C1NC(=O)C2(CCN(C(=O)c3ccc(Cl)s3)CC2)NC(=O)CCSSCCNC(=O)C2CCCN(C2)C1=O (stereo not shown)
[reply] 80.4

[ask] Note, next up: CC1NC(=O)C(CNC(=O)c2ccc(Cl)s2)NC(=O)CCSSCCNC(=O)c2cccc(c2)CNC1=O (stereo not shown)
[reply] 106.9

[ask] Note, next up: O=C1NC2(CCN(C(=O)c3ccc(Cl)s3)CC2)C(=O)NCCSSCCC(=O)N2CCCC2C(=O)NC1Cc1c[nH]c2ccccc12 (stereo not shown) [X B1 w D6] ([Mpa]PW[Api](2Thenoyl(5-Cl))-Cysteamide; disulfide 1-C; configuration not given here)
[reply] 97.2

[ask] Note, next up: O=C1CCSSCCNC(=O)C2CC(NC(=O)c3ccc(Cl)s3)CN2C(=O)CCNC(=O)C(Cc2ccccc2)N1 (stereo not shown)
[reply] 101.2

[ask] Note, next up: CC(C)C[C@@H]1NC(=O)CCSSCCNC(=O)[C@H](CCCCNC(=O)c2ccc(Cl)s2)NC(=O)C2(CC2)CNC1=O [X L B6 D1]
[reply] 97.2

[ask] Note, next up: O=C1CCSSCCNC(=O)C2CC(NC(=O)c3ccc(Cl)s3)CN2C(=O)C2CCCN(C2)C(=O)C(Cc2ccccc2)N1 (stereo not shown)
[reply] 99.4

[ask] Note, next up: CC(C)CC1NC(=O)C2(CC2)CNC(=O)C2CC(NC(=O)c3ccc(Cl)s3)CN2C(=O)CCSSCCNC1=O (stereo not shown)
[reply] 116.8

[ask] Note, next up: NC(=O)CCC1NC(=O)C2CC(NC(=O)c3ccc(Cl)s3)CN2C(=O)CCSSCCNC(=O)c2ccc(cc2)CNC1=O (stereo not shown)
[reply] 101.1

[ask] Note, next up: NC(=O)CC[C@@H]1NC(=O)CCSSCCNC(=O)C2(CCN(C(=O)c3ccc(Cl)s3)CC2)NC(=O)c2ccc(cc2)CNC1=O
[reply] 88.0

[ask] Note, next up: O=C1CCSSCCNC(=O)C(Cc2ccccc2)NC(=O)C(CNC(=O)c2ccc(Cl)s2)NC(=O)c2ccc(cc2)CN1 (stereo not shown)
[reply] 96.6

[ask] Note, next up: CC[C@H](C)[C@@H]1NC(=O)CCSSCCNC(=O)[C@H](CNC(=O)c2ccc(Cl)s2)NC(=O)[C@@H]2CCCN2C1=O [X I B1 D3] ([Mpa]IP[Dap](2Thenoyl(5-Cl))-Cysteamide; disulfide 1-C)
[reply] 90.1

[ask] Note, next up: CC(C)C[C@@H]1NC(=O)CCSSCCNC(=O)[C@@H]2CCCN2C(=O)[C@@H](CNC(=O)c2ccc(Cl)s2)NC1=O [X L D4 B1] ([Mpa]L[dDap](2Thenoyl(5-Cl))P-Cysteamide; disulfide 1-C)
[reply] 100.9

[ask] Note, next up: O=C1CCNC(=O)[C@@H](NC(=O)c2ccc(Cl)s2)CSSCCNC(=O)[C@@H](CO)NC(=O)CN1
[reply] 112.3

[ask] Note, next up: O=C1CCNC(=O)C2CC(NC(=O)c3ccc(Cl)s3)CN2C(=O)CCSSCCNC(=O)C(CO)N1 (stereo not shown)
[reply] 124.0

[ask] Note, next up: O=C1CCSSCCNC(=O)C(CO)NC(=O)c2ccc(cc2)CNC(=O)C(CCCCNC(=O)c2ccc(Cl)s2)N1 (stereo not shown) [X D1 B3 S]
[reply] 103.2

[ask] Note, next up: CC1NC(=O)CCSSCCNC(=O)c2cccc(c2)CNC(=O)C(CCCCNC(=O)c2ccc(Cl)s2)NC1=O (stereo not shown) [X a D1 B5]
[reply] 104.4

[ask] Note, next up: O=C1CCSSCCNC(=O)[C@H](Cc2cnc[nH]2)NC(=O)c2cccc(c2)CNC(=O)[C@H](CCCNC(=O)c2ccc(Cl)s2)N1 [X D2 B5 H]
[reply] 94.7

====

Can you tell me % thrombin activity, Repeat screen for the items I'm about to list?
# Assayed Target: thrombin (Homo sapiens)
# Construct: consists of two polypeptide chains of 36 (light chain) and 259 amino acid
# Assay: Thrombin inhibition screen of crude macrocycle reactions (residual thrombin activity, fluorogenic substrate Z-Gly-Gly-Arg-AMC)
# Type: biochemical
# Test Conditions: 10 µM macrocycle concentration; macrocycles containing acid 14; crude reaction; replicate reaction and screen
Numbered stars: 1 amine (or outer) side, 2 acyl side, 3 side chain; on linkers, the order of the positions; unused ones are H or OH. Bridge positions count the residues as written; N and C are the ends. Square brackets hold non-standard residues; d marks the D form. Peptide text beside a SMILES is read from it. * marks the point of attachment. Pro(4S-NHCO(5-Cl-2-thienyl)) = O=C(N[C@@H]1CN[C@H](C(=O)O)C1)c1ccc(Cl)s1; 2Thenoyl(5-Cl) = O=C(c1ccc(Cl)s1)*; Cysteamide = C(CS[*:3])N[*:1]; Api = NC1(C(=O)O)CCNCC1; Mpa = O=C(O)CCS
Field: numeric (%). Do not append units.

[ask] Fill in the blank: the reported % thrombin activity, Repeat screen of CC[C@H](C)[C@@H]1NC(=O)[C@H](CCCNC(=O)c2ccc(Cl)s2)NC(=O)c2cccc(c2)CNC(=O)CCSSCCNC1=O [X B5 D2 I] is ____.
[reply] 83.0

[ask] Note, next up: NC(=O)CC[C@@H]1NC(=O)[C@@H]2C[C@H](NC(=O)c3ccc(Cl)s3)CN2C(=O)[C@@H]2CCCN2C(=O)CCSSCCNC1=O [X B1 D5 Q] ([Mpa]P[Pro(4S-NHCO(5-Cl-2-thienyl))]Q-Cysteamide; disulfide 1-C)
[reply] 98.4

[ask] Note, next up: NC(=O)CC[C@@H]1NC(=O)[C@H]2CCCN(C2)C(=O)CCSSCCNC(=O)C2(CCN(C(=O)c3ccc(Cl)s3)CC2)NC1=O [X B4 Q D6]
[reply] 99.5

[ask] Note, next up: O=C1CCSSCCNC(=O)C(Cc2c[nH]c3ccccc23)NC(=O)C2CC(NC(=O)c3ccc(Cl)s3)CN2C(=O)CCN1 (stereo not drawn) [X B2 D5 w]
[reply] 101.8

[ask] Note, next up: O=C1CCSSCCNC(=O)[C@H](CCCCNC(=O)c2ccc(Cl)s2)NC(=O)[C@@H](Cc2ccc(O)cc2)NC(=O)c2ccc(cc2)CN1 [X B3 y D1]
[reply] 108.9

[ask] Note, next up: NC(=O)CC[C@@H]1NC(=O)c2cccc(c2)CNC(=O)CCSSCCNC(=O)[C@H](CNC(=O)c2ccc(Cl)s2)NC1=O [X B5 Q D3]
[reply] 96.2

[ask] Note, next up: CC[C@H](C)[C@@H]1NC(=O)CCSSCCNC(=O)[C@H]2CCCN(C2)C(=O)[C@H](CCCCNC(=O)c2ccc(Cl)s2)NC1=O [X I D1 B4]
[reply] 101.6

[ask] Note, next up: O=C1CCSSCCNC(=O)C2(CCN(C(=O)c3ccc(Cl)s3)CC2)NC(=O)[C@@H]2CCCN2C(=O)[C@H](Cc2c[nH]c3ccccc23)N1 [X W B1 D6] ([Mpa]WP[Api](2Thenoyl(5-Cl))-Cysteamide; disulfide 1-C)
[reply] 113.7

[ask] Note, next up: O=C1CNC(=O)c2ccc(cc2)CNC(=O)[C@@H](NC(=O)c2ccc(Cl)s2)CSSCCNC(=O)[C@H](Cc2cnc[nH]2)N1 [C B3 G H]
[reply] 116.7

[ask] Note, next up: O=C1CCSSCCNC(=O)[C@@H](CNC(=O)c2ccc(Cl)s2)NC(=O)[C@H](Cc2c[nH]c3ccccc23)NC(=O)CCN1 [X B2 W D4]
[reply] 68.8

[ask] Note, next up: O=C1CCSSCCNC(=O)[C@@H](Cc2ccc(O)cc2)NC(=O)[C@H]2CCCN(C2)C(=O)[C@H](CCCCNC(=O)c2ccc(Cl)s2)N1 [X D1 B4 y]
[reply] 100.1

[ask] Note, next up: CC(C)C1NC(=O)CCSSCCNC(=O)C(CNC(=O)c2ccc(Cl)s2)NC(=O)C2CCCN(C2)C1=O (stereo not drawn) [X V B4 D3]
[reply] 73.4

[ask] Note, next up: O=C1CCSSCCNC(=O)[C@@H](Cc2c[nH]c3ccccc23)NC(=O)[C@@H](CNC(=O)c2ccc(Cl)s2)NC(=O)CCN1 [X B2 D4 w]
[reply] 91.0

[ask] Note, next up: CC(C)C1NC(=O)C2CCCN(C2)C(=O)C(NC(=O)c2ccc(Cl)s2)CSSCCNC(=O)CNC1=O (stereo not drawn) [C B4 V G]
[reply] 115.5

[ask] Note, next up: O=C(NC[C@H]1NC(=O)[C@@H](CO)NC(=O)[C@H]2CCCN(C2)C(=O)CCSSCCNC1=O)c1ccc(Cl)s1 [X B4 s D4]
[reply] 106.7

[ask] Note, next up: CC(C)[C@H]1NC(=O)CCSSCCNC(=O)c2cccc(c2)CNC(=O)[C@@H](CNC(=O)c2ccc(Cl)s2)NC1=O [X v D4 B5]
[reply] 104.1

[ask] Note, next up: O=C1CCNC(=O)[C@H](Cc2c[nH]cn2)NC(=O)CCSSCCNC(=O)[C@H](CCCNC(=O)c2ccc(Cl)s2)N1 [X H B2 D2]
[reply] 91.5

[ask] Note, next up: O=C1CCSSCCNC(=O)[C@@H](CNC(=O)c2ccc(Cl)s2)NC(=O)c2cccc(c2)CNC(=O)[C@H](Cc2c[nH]c3ccccc23)N1 [X W B5 D4]
[reply] 106.8

[ask] Note, next up: O=C1CCSSCCNC(=O)[C@H](CCCNC(=O)c2ccc(Cl)s2)NC(=O)[C@H](Cc2ccccc2)NC(=O)c2cccc(c2)CN1 [X B5 F D2]
[reply] 80.4

[ask] Note, next up: O=C1CCSSCCNC(=O)[C@H](Cc2ccc(O)cc2)NC(=O)C2(CC2)CNC(=O)[C@H](CNC(=O)c2ccc(Cl)s2)N1 [X D3 B6 Y]
[reply] 70.5

[ask] Note, next up: O=C1CCSSCCNC(=O)C(Cc2c[nH]c3ccccc23)NC(=O)C2CC(NC(=O)c3ccc(Cl)s3)CN2C(=O)c2cccc(c2)CN1 (stereo not drawn) [X B5 D5 w]
[reply] 122.3

[ask] Note, next up: O=C1CCSSCCNC(=O)C2CCCN2C(=O)C2(CCN(C(=O)c3ccc(Cl)s3)CC2)NC(=O)C(CO)N1 (stereo not drawn) [X s D6 B1] ([Mpa]S[Api](2Thenoyl(5-Cl))P-Cysteamide; disulfide 1-C; configuration not given here)
[reply] 99.9

[ask] Note, next up: O=C1CCNC(=O)[C@@H](Cc2ccc(O)cc2)NC(=O)[C@H](CNC(=O)c2ccc(Cl)s2)NC(=O)CCSSCCN1 [X D3 y B2]
[reply] 75.2

[ask] Note, next up: O=C1CCSSCCNC(=O)[C@H](Cc2ccc(O)cc2)NC(=O)c2cccc(c2)CNC(=O)[C@H](CCCNC(=O)c2ccc(Cl)s2)N1 [X D2 B5 Y]
[reply] 66.2
